Kindly state pEC50 for each of the entries shown.
Molecular target: sGC α1/β1 heterodimer (Homo sapiens, UniProt Q02108+Q02153)
Sequence (Q02108 whole entry): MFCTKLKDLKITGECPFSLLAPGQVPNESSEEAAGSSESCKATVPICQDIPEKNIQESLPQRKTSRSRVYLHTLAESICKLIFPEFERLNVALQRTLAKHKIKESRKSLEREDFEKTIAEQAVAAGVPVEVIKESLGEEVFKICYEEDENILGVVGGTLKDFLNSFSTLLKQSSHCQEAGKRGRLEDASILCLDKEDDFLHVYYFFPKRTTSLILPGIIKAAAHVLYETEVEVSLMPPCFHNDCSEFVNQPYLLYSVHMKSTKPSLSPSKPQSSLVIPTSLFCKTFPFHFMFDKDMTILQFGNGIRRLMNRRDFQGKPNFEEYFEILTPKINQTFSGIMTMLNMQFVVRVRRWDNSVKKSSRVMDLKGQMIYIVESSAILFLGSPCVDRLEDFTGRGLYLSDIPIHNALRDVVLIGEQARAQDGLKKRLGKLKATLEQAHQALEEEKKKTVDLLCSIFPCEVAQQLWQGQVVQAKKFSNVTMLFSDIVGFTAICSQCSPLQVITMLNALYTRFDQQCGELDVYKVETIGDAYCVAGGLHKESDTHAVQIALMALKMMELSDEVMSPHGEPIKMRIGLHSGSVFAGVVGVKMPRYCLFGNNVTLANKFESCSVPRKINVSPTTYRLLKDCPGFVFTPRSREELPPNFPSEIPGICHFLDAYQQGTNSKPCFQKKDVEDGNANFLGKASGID
Sequence (Q02153 whole entry): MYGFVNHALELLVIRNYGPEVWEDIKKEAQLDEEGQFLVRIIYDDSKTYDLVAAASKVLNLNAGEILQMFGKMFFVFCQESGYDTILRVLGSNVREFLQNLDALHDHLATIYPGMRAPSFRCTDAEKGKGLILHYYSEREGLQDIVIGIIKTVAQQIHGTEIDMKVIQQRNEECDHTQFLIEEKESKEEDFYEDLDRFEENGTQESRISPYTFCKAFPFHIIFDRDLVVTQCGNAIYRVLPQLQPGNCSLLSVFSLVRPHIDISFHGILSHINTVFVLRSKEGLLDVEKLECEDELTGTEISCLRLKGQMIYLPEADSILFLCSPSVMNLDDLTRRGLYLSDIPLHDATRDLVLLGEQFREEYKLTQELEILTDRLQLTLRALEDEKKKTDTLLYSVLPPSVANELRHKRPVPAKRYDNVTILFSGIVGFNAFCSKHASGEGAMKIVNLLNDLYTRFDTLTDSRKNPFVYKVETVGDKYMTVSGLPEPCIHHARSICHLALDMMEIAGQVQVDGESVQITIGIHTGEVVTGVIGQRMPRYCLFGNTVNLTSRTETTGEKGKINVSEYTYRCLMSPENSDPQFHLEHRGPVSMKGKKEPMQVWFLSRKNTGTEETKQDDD
Experiment: Cell-based sGC functional assay (CASA assay): cGMP generation in CHO-K1/sGC cells, HTRF detection
Conditions: inflection point (IP) of cGMP generation in CHO-K1/sGC cells, 4P fit; activity expressed as percentage of Compound A
Note on pEC50: it is the negative log10 of concentration, concentration in mol/L.

Write down the reported pEC50 (system: sGC α1/β1 heterodimer (Homo sapiens, UniProt Q02108+Q02153)) of CC1(c2ccc(Cl)c(Cl)c2)C(=O)Nc2nc(-c3cn4ccnc4c(CCC(F)(F)F)n3)nc(N)c21 (centres unmarked) [Example 186A]
6.68

Write down the reported pEC50 (system: sGC α1/β1 heterodimer (Homo sapiens, UniProt Q02108+Q02153)) of Nc1nc(-c2cn3ccnc3c(CCCC(F)(F)F)n2)nc2c1C(c1ccc(F)c(F)c1)(C1CC1)C(=O)N2 (centres unmarked) [Example 317A]
7.12

Write down the reported pEC50 (system: sGC α1/β1 heterodimer (Homo sapiens, UniProt Q02108+Q02153)) of CC1(c2ccc(F)c(F)c2)C(=O)Nc2nc(-c3cn4ccnc4cn3)nc(N)c21 (centres unmarked) [Example 141B]
6.63

Write down the reported pEC50 (system: sGC α1/β1 heterodimer (Homo sapiens, UniProt Q02108+Q02153)) of CC1(c2ccc(F)cc2)C(=O)Nc2nc(-c3cn4c(N)cnc4c(CCC(F)(F)C(F)(F)F)n3)nc(N)c21 (centres unmarked) [Example 267A]
6.67

Write down the reported pEC50 (system: sGC α1/β1 heterodimer (Homo sapiens, UniProt Q02108+Q02153)) of CN(C)C(=O)c1cccc(C2(C)C(=O)Nc3nc(-c4cn5ccnc5c(CCC(F)(F)C(F)(F)F)n4)nc(N)c32)c1 (centres unmarked) [Example 271B]
6.21

Write down the reported pEC50 (system: sGC α1/β1 heterodimer (Homo sapiens, UniProt Q02108+Q02153)) of CC1(c2ccc(Cl)cc2)C(=O)Nc2nc(-c3cn4ccnc4cn3)nc(N3CC(F)(C4CC4)C3)c21 (centres unmarked) [Example 281A]
6.99

Write down the reported pEC50 (system: sGC α1/β1 heterodimer (Homo sapiens, UniProt Q02108+Q02153)) of CC1(c2ccc(Cl)cc2)C(=O)Nc2nc(-c3cn4ccnc4cn3)nc(N3CCC(C(F)(F)F)C3)c21 (racemic) [Example 279A]
7.24

Write down the reported pEC50 (system: sGC α1/β1 heterodimer (Homo sapiens, UniProt Q02108+Q02153)) of CC1(c2ccc(F)cc2)C(=O)Nc2nc(-c3cn4ccnc4c(Cc4ccccc4)n3)nc(N)c21 (centres unmarked) [Example 93A]
7.92

Write down the reported pEC50 (system: sGC α1/β1 heterodimer (Homo sapiens, UniProt Q02108+Q02153)) of CC1(c2ccc(Cl)cc2)C(=O)Nc2nc(-c3cn4ccnc4cn3)nc(NCC3CC3)c21 (centres unmarked) [Example 283A]
7.25

Write down the reported pEC50 (system: sGC α1/β1 heterodimer (Homo sapiens, UniProt Q02108+Q02153)) of CC1(c2ccccc2)C(=O)Nc2nc(-c3cn4ccnc4c(Cc4c(F)ccc(F)c4F)n3)nc(N)c21 (centres unmarked) [Example 100B]
7.89

Write down the reported pEC50 (system: sGC α1/β1 heterodimer (Homo sapiens, UniProt Q02108+Q02153)) of CC1(c2ccc(F)cc2)C(=O)Nc2nc(-c3cn4ccnc4c(CCCC(F)(F)F)n3)nc(N)c21 (centres unmarked) [Example 211A]
7.12

Write down the reported pEC50 (system: sGC α1/β1 heterodimer (Homo sapiens, UniProt Q02108+Q02153)) of CC(F)(F)c1ccc(C2(C)C(=O)Nc3nc(-c4cn5ccnc5c(CCCC(F)(F)F)n4)nc(N)c32)cn1 (single isomer, unassigned) [Example 380B]
7.46

Write down the reported pEC50 (system: sGC α1/β1 heterodimer (Homo sapiens, UniProt Q02108+Q02153)) of CCc1ccc(C2(C)C(=O)Nc3nc(-c4cn5ccnc5c(CCC(F)(F)C(F)(F)F)n4)nc(N)c32)nc1 (centres unmarked) [Example 242B]
6.90

Write down the reported pEC50 (system: sGC α1/β1 heterodimer (Homo sapiens, UniProt Q02108+Q02153)) of CC1(c2ccc(F)cc2)C(=O)Nc2nc(-c3cn4ccnc4c(C4CCC4)n3)nc(N)c21 (centres unmarked) [Example 21A]
6.71

----------
Kindly state EC50 for each of the entries shown.
Biological target: sGC α1/β1 heterodimer (Homo sapiens, UniProt Q02108+Q02153)
Assay: Cell-based sGC functional assay (CASA assay): cGMP generation in CHO-K1/sGC cells, HTRF detection
Details: inflection point (IP) of cGMP generation in CHO-K1/sGC cells, 4P fit; activity expressed as percentage of Compound A
A complete answer gives the number followed by the unit.

Write down the reported EC50 (system: sGC α1/β1 heterodimer (Homo sapiens, UniProt Q02108+Q02153)) of CC1(c2ccc(Cl)c(F)c2)C(=O)Nc2nc(-c3cn4ccnc4c(CCC(F)(F)F)n3)nc(N)c21 (stereo not shown) [Example 178B]
17 nM

Write down the reported EC50 (system: sGC α1/β1 heterodimer (Homo sapiens, UniProt Q02108+Q02153)) of Nc1nc(-c2cn3ccnc3cn2)nc2c1C(c1ccc(Cl)cc1)(C1CC1)C(=O)N2 (stereo not shown) [Example 146B]
461 nM

Write down the reported EC50 (system: sGC α1/β1 heterodimer (Homo sapiens, UniProt Q02108+Q02153)) of CN(C)c1nc(-c2cn3ccnc3cn2)nc2c1C(C)(c1ccc(Cl)cc1)C(=O)N2 (stereo not shown) [Example 312A]
25 nM

Write down the reported EC50 (system: sGC α1/β1 heterodimer (Homo sapiens, UniProt Q02108+Q02153)) of CC1(c2ccc(F)cn2)C(=O)Nc2nc(-c3cn4ccnc4c(CC4CCC4)n3)nc(N)c21 (stereo not shown) [Example 115B]
14 nM

Write down the reported EC50 (system: sGC α1/β1 heterodimer (Homo sapiens, UniProt Q02108+Q02153)) of Nc1nc(-c2cn3ccnc3c(CCC(F)(F)C(F)(F)F)n2)nc2c1C(C(=O)NC1CC1)(C1CC1)C(=O)N2 (single isomer, unassigned) [Example 61B]
450 nM

Write down the reported EC50 (system: sGC α1/β1 heterodimer (Homo sapiens, UniProt Q02108+Q02153)) of CC(C)Cc1nc(-c2nc(N)c3c(n2)NC(=O)C3(c2ccc(C(F)(F)F)cn2)C2CC2)cn2ccnc12 (stereo not shown) [Example 127A]
518 nM

Write down the reported EC50 (system: sGC α1/β1 heterodimer (Homo sapiens, UniProt Q02108+Q02153)) of Nc1nc(-c2cn3ccnc3c(CCC(F)(F)C(F)(F)F)n2)nc2c1C(c1ccc(F)cn1)(C1CC1)C(=O)N2 (stereo not shown) [Example 223A]
177 nM

----------
Target: sGC α1/β1 heterodimer (Homo sapiens, UniProt Q02108+Q02153)
Experiment: Cell-based sGC functional assay (CASA assay): cGMP generation in CHO-K1/sGC cells, HTRF detection
Details: inflection point (IP) of cGMP generation in CHO-K1/sGC cells, 4P fit; activity expressed as percentage of Compound A
Exam item: assign MET to entries whose EC50 is below 300 nM and NOT MET to entries at or above 300 nM. Note that a value of exactly 300 nM receives NOT MET.

is_below(EC50, 300 nM) for Nc1nc(-c2cn3cc(C(F)(F)F)nc3c(Cc3cccc(F)c3)n2)nc2c1C(C(=O)NC1CC1)(C1CC1)C(=O)N2 (stereo not shown) [Example 44B] ?
MET

is_below(EC50, 300 nM) for CC1(c2ccc(OC(F)(F)F)cc2)C(=O)Nc2nc(-c3cn4ccnc4c(CCC(F)(F)F)n3)nc(N)c21 (stereo not shown) [Example 196B] ?
MET

is_below(EC50, 300 nM) for CC1(c2ccc(Cl)cc2)C(=O)Nc2nc(-c3cn4ccnc4c(CCC(F)(F)F)n3)nc(N3CCOCC3)c21 (stereo not shown) [Example 297A] ?
NOT MET

is_below(EC50, 300 nM) for COc1ccc(C2(C)C(=O)Nc3nc(-c4cn5ccnc5c(CCC(F)(F)C(F)(F)F)n4)nc(N)c32)cn1 (stereo not shown) [Example 236B] ?
MET

is_below(EC50, 300 nM) for CC1(c2ccc(OC(F)F)cn2)C(=O)Nc2nc(-c3cn4ccnc4c(CCCC(F)(F)F)n3)nc(N)c21 (stereo not shown) [Example 214A] ?
MET

is_below(EC50, 300 nM) for CC1(c2ccc(F)cc2)C(=O)Nc2nc(-c3cn4ccnc4c(CCC(F)(F)C(F)(F)F)n3)nc(N3CCCC3)c21 (stereo not shown) [Example 301A] ?
NOT MET
